Test system: HeLa Kyoto;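 further: HeLa Kyoto cells synchronized by double thymidine or nocodazole block, proteins quantified by TMT10plex mass spectrometry, three independent biological replicates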
Assay: melting temperature (median over replicates), in situ; higher = more thermally stable
Details: cell cycle stage: G1/S
Readout type: melting temperature (°C)
One number for each entry, in °C.

MVSPATRKSLPKVKAMDFITSTAILPLLFGCLGVFGLFRLLQWVRGKAYLRNAVVVITGATSGLGKECAKVFYAAGAKLVLCGRNGGALEELIRELTASHATKVQTHKPYLVTFDLTDSGAIVAAAAEILQCFGYVDILVNNAGISYRGTIMDTTVDVDKRVMETNYFGPVALTKALLPSMIKRRQGHIVAISSIQGKMSIPFRSAYAASKHATQAFFDCLRAEMEQYEIEVTVISPGYIHTNLSVNAITADGSRYGVMDTTTAQGRSPVEVAQDVLAAVGKKKKDVILADLLPSLAVYLRTLAPGLFFSLMASRARKERKSKNS [DHRS7B]: 51.6

Alright, here's another sequence for you.
Incoming: I have this sequence here, MSSPSPGKRRMDTDVVKLIESKHEVTILGGLNEFVVKFYGPQGTPYEGGVWKVRVDLPDKYPFKSPSIGFMNKIFHPNIDEASGTVCLDVINQTWTALYDLTNIFESFLPQLLAYPNPIDPLNGDAAAMYLHRPEEYKQKIKEYIQKYATEEALKEQEEGTGDSSSESSMSDFSEDEAQDMEL [UBE2H] , and I need its recorded melting temperature.
Outgoing: 52

// provenance: the supplement of paper PMC5998384
